System: kochia (Kochia scoparia)
Experiment: Test A greenhouse herbicide test, pre- and postemergence
Format: in vivo
Settings: Postemergence, 125 g ai/ha; 0 to 100 scale where 0 is no effect and 100 is complete control
Task for the reader: assign each of the following compounds its reported Plant response rating, Kochia.
Lab note: record the figure alone, no unit after it.

Inquiry: Retrieve Plant response rating, Kochia measured for Cc1nn(C)c(=O)c(-c2c(C)sc3ccc(Cl)cc23)c1O and print it.
Reply text: 90

Inquiry: Retrieve Plant response rating, Kochia measured for Cc1ccc2ccccc2c1-c1c(O)cnn(C)c1=O and print it.
Reply text: 90

Inquiry: Retrieve Plant response rating, Kochia measured for COc1nn(C)c(=O)c(-c2cccc3ccccc23)c1O and print it.
Reply text: 90
